# Test system: Bacillus subtilis
# EXPERIMENT NOTES: Antibacterial activity against Bacillus subtilis IFO 3007 assessed as growth inhibition at 200 ug/disc after 24 hrs by agar disc-diffusion method
# Assay type: functional
# CONDITIONS: IFO 3007, 24 h, read-out: DIZ
// reported zone of inhibition at 200 µg/disc per item
TEST READOUT: zone of inhibition at 200 µg/disc (mm)

SMILES INPUT: CCOC(=O)N1CCN(Cn2nc(C34CC5CC(CC(C5)C3)C4)n(/N=C/c3ccccc3O)c2=S)CC1
SUBJECT OF TEST: Bacillus subtilis
MEAS VALUE: 19

SMILES INPUT: S=c1n(CN2CCN(Cc3ccccc3)CC2)nc(C23CC4CC(CC(C4)C2)C3)n1-c1ccc(Cl)cc1
SUBJECT OF TEST: Bacillus subtilis
MEAS VALUE: 12

SMILES INPUT: FC(F)(F)c1ccccc1NCn1nc(C23CC4CC(CC(C4)C2)C3)n(-c2ccc(Cl)cc2)c1=S
SUBJECT OF TEST: Bacillus subtilis
MEAS VALUE: 19

SMILES INPUT: CCN1CCN(Cn2nc(C34CC5CC(CC(C5)C3)C4)n(-c3ccc(Cl)cc3)c2=S)CC1
SUBJECT OF TEST: Bacillus subtilis
MEAS VALUE: 18

====

// reported zone of inhibition at 200 µg/disc per item
# Tested on: Bacillus subtilis
# EXPERIMENT NOTES: Antibacterial activity against Bacillus subtilis IFO 3007 assessed as growth inhibition at 200 ug/disc after 24 hrs by agar disc-diffusion method
# Type: functional
# CONDITIONS: IFO 3007, 24 h, read-out: DIZ

SMILES INPUT: Cn1c(C23CC4CC(CC(C4)C2)C3)nn(CNc2ccc(Br)cc2)c1=S
VALUE COMPARATOR: <
zone of inhibition at 200 µg/disc [mm]: 10
--
SMILES INPUT: S=c1n(CNc2ccccc2)nc(C23CC4CC(CC(C4)C2)C3)n1-c1ccc(Cl)cc1
VALUE COMPARATOR: <
zone of inhibition at 200 µg/disc [mm]: 10
--
SMILES INPUT: CCN1CCN(Cn2nc(C34CC5CC(CC(C5)C3)C4)n(/N=C/c3ccccc3O)c2=S)CC1
VALUE COMPARATOR: =
zone of inhibition at 200 µg/disc [mm]: 30
--
SMILES INPUT: CCN1CCN(Cn2nc(C34CC5CC(CC(C5)C3)C4)n(/N=C/c3ccc(O)cc3)c2=S)CC1
VALUE COMPARATOR: =
zone of inhibition at 200 µg/disc [mm]: 29
--
SMILES INPUT: Oc1ccccc1/C=N/n1c(C23CC4CC(CC(C4)C2)C3)nn(CN2CCN(c3ccccc3)CC2)c1=S
VALUE COMPARATOR: =
zone of inhibition at 200 µg/disc [mm]: 25
--
SMILES INPUT: CCOC(=O)N1CCN(Cn2nc(C34CC5CC(CC(C5)C3)C4)n(/N=C/c3ccc(O)cc3)c2=S)CC1
VALUE COMPARATOR: =
zone of inhibition at 200 µg/disc [mm]: 16
--
SMILES INPUT: FC(F)(F)c1ccc(NCn2nc(C34CC5CC(CC(C5)C3)C4)n(-c3ccc(Cl)cc3)c2=S)cc1
VALUE COMPARATOR: =
zone of inhibition at 200 µg/disc [mm]: 22
--
SMILES INPUT: S=c1n(CNc2ccccc2Cl)nc(C23CC4CC(CC(C4)C2)C3)n1-c1ccc(Cl)cc1
VALUE COMPARATOR: =
zone of inhibition at 200 µg/disc [mm]: 11
--
SMILES INPUT: Oc1ccc(/C=N/n2c(C34CC5CC(CC(C5)C3)C4)nn(CN3CCN(c4ccccc4)CC3)c2=S)cc1
VALUE COMPARATOR: =
zone of inhibition at 200 µg/disc [mm]: 22
